assay: Plasma pharmacokinetics of entinostat; type: in vivo, human; conditions: female, human, plasma, po, 3 mg/week
propertyName: Cmax (ng/mL)

>>> numericreadout("Nc1ccccc1NC(=O)c1ccc(CNC(=O)OCc2cccnc2)cc1 [Entinostat]")
55.7

---

assay: Plasma pharmacokinetics of entinostat; assay type: in vivo, human; details: female, human, plasma, po, 5 mg
propertyName: Cmax (ng/mL)

>>> numericreadout("Nc1ccccc1NC(=O)c1ccc(CNC(=O)OCc2cccnc2)cc1")
101

---

experiment: Plasma pharmacokinetics of entinostat; assay type: in vivo, human; settings: female, human, plasma, po, 7 mg/week
propertyName: Cmax (ng/mL)

>>> numericreadout("Nc1ccccc1NC(=O)c1ccc(CNC(=O)OCc2cccnc2)cc1 [Entinostat]")
122
